Measured Kp uu values are reported for all entries that follow.
# protocolText: Ratio of unbound brain to plasma concentration in Sprague-Dawley rat at 1 mg/kg, iv or 5 mg/kg, po administered as single dose by LC-MS/MS analysis
# Format: ADME, organism-based
# conditionSummary: brain and plasma, read-out: K(p,uu,brain)
measure: Kp uu

INSERT INTO results (structureassmiles, measure, endpointresult) VALUES
  ('O=c1[nH]c2ccc(-c3c(Cl)cccc3C3CC3)cc2[nH]1', 'Kp uu', 0.3),
  ('O=c1[nH]c2ccc(-c3c(Cl)cccc3OC(F)(F)F)cc2[nH]1', 'Kp uu', 0.6),
  ('Cc1cccc(C)c1-c1ccc2[nH]c(=O)[nH]c2c1', 'Kp uu', 0.3);

Cited source: ChEMBL document CHEMBL4196161
